experimental_target: Cav2.3 (Homo sapiens)
Sequence (Q15878 whole entry, looked up): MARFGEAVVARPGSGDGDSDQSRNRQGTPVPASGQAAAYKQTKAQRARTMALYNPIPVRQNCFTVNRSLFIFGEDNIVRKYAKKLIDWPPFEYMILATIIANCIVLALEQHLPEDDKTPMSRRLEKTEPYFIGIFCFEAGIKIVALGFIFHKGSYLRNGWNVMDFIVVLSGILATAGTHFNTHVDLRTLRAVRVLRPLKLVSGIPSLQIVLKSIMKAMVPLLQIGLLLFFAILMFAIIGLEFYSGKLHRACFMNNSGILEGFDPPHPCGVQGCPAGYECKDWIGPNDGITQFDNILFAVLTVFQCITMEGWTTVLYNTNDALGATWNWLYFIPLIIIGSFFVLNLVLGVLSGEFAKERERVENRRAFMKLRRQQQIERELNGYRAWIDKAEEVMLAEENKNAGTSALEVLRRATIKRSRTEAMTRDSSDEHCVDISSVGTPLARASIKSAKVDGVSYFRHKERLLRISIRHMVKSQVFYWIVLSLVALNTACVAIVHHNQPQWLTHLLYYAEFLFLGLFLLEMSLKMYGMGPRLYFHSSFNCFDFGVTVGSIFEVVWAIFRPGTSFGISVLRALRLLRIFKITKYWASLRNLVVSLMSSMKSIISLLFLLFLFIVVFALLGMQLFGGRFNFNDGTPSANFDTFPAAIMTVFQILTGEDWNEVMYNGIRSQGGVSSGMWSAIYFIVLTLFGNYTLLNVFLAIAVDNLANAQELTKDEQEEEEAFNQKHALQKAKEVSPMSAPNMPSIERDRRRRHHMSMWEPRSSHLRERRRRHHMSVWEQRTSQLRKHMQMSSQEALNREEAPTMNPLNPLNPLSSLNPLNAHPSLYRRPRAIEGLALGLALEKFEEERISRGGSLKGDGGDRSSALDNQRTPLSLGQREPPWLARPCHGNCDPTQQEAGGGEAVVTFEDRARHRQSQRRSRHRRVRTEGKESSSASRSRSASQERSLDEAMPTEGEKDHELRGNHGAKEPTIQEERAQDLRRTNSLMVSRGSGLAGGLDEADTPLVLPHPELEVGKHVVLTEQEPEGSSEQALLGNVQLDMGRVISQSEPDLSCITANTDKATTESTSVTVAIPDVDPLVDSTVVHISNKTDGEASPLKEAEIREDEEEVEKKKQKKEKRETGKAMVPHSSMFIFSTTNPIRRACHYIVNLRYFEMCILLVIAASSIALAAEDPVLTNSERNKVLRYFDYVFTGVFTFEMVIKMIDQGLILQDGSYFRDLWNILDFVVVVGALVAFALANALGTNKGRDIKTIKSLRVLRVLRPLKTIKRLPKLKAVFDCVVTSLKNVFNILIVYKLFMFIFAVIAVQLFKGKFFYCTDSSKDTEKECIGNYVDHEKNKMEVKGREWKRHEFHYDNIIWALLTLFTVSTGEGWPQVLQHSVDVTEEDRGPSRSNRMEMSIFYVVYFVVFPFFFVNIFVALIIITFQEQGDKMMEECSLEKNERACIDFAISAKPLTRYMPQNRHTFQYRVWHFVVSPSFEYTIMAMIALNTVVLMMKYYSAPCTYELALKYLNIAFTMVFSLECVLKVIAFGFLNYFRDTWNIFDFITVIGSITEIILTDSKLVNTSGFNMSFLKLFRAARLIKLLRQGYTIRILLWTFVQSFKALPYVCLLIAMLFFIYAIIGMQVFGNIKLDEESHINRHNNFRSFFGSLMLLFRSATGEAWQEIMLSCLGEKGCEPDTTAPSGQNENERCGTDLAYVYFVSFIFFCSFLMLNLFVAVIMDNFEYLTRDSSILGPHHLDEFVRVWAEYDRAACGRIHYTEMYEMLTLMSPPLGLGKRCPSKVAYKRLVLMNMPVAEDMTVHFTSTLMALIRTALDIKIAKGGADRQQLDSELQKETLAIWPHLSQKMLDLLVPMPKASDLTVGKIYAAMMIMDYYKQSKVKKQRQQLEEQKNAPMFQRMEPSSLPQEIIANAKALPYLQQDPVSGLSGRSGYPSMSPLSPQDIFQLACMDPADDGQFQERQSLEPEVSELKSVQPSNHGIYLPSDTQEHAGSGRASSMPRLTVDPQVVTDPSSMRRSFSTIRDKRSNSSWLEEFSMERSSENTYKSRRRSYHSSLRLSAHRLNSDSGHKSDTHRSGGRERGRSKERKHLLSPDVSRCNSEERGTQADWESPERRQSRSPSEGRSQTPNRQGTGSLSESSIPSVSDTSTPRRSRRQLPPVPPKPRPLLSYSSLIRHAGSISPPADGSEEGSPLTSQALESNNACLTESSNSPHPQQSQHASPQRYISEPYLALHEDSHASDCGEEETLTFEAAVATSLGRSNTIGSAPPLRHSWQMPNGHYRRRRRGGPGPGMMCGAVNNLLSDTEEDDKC
experiment: Human Cav2.3 channel calcium-influx assay
Assay type: cell-based
cond: Fluo8 fluorescence, HEK-293 T-Rex/Kir2.1/Cav2.3e cells, without pluronic acid, read-out: Cav2.3 (pIC50) (converted)
endpoint: IC50 (nM)

// solved cases for IC50 follow
CCN([C@H](c1ccc(F)cc1)C(F)(F)F)S(=O)(=O)c1nc2cnccn2n1 | 1780
CCN([C@H](c1ccc(F)cc1)C(F)(F)F)S(=O)(=O)c1ccc(=O)n(C)c1 | 182
CN([C@H](c1ccc(C(F)(F)F)cc1)C(F)(F)F)S(=O)(=O)c1cnc2ccccn12 | 31.6

1 = CN([C@H](c1ccc(Cl)cc1)C(F)(F)F)S(=O)(=O)c1cnc2ncsc2c1
2 = CCN(C(c1ccc(F)cc1)C(F)(F)F)S(=O)(=O)c1nccs1 (stereo not shown)
3 = CCN([C@H](c1ccc(F)cc1)C(F)(F)F)S(=O)(=O)c1ccc2nnc(C(F)(F)F)n2n1
Order the entries by their reported IC50, beginning at the minimum. Enter labels, ranked according to the request.
1, 2, 3
(1: 282 nM, 2: 955 nM, 3: 5750 nM)

A = CN([C@H](c1ccc(Cl)cc1)C(F)(F)F)S(=O)(=O)c1ccn2nncc2c1
B = CN([C@H](c1ccc(F)cc1)C(F)(F)F)S(=O)(=O)c1ccc(F)s1 (stereo in doubt)
// task: argmin of IC50 over [ A , B ] API: response body contains the label of the selected item.
A

I = [2H][C@@](c1ccc(Cl)cc1)(N(C)S(=O)(=O)c1cncc(C#N)c1)C(F)(F)F
II = COc1ccc([C@H](N(C)S(=O)(=O)C2CCOCC2)C(F)(F)F)cc1
// pick larger IC50 from pair: I vs II Your answer should be the label of the entry you select.
II
(II: 14100 nM, I: 35.5 nM)

Where do these numbers come from? They come from patent US20250115569A1.
